Test system: SN12C renal
Protocol Text: NCI-60 one-dose screen, 48 h (100 = growth as untreated, 0 = no growth, -100 = all killed)
Recorded Conditions: 10 µM unless noted
This is part of a sample that, as a whole, favours compounds with a hit. Of some 83,000 tested, about 20% had one in any assay. The source made the active and inactive calls. The calls were made as follows: active = growth percent below 10; inactive = the rest.
Reported growth values for a set of compounds

For orientation, consider the following solved cases.
- Compound: "COC(=O)CCC1=C(C)c2cc3[n-]c(cc4nc(cc5[n-]c(cc1n2)c(CCC(=O)OC)c5C)C=C4C)cc3C.[Cd+2]"
  growth: "71.2% (inactive)"
- Compound: "CCOc1ccc(/C=C/[N+](=O)[O-])cc1"
  growth: "94.5% (inactive)"
- Compound: "O=C1OCC2=C1C(c1ccccc1)c1cc3c(cc1N2)OCO3 (configuration not stated)"
  growth: "21.5% (inactive)"
- Compound: "ClCCN(CCCl)c1nc(Cl)c(C2CC(c3ccccc3)=NN2c2cc(Cl)cc(Cl)c2)s1 (configuration not stated)"
  growth: "95.2% (inactive)"

For the compound shown here, CNC12C3C4C1C1C2C3C41C(=O)N[C@H](C(=O)N(C)[C@H](C[C@@H](OC(C)=O)c1nc(C(=O)N[C@@H](Cc2ccccc2)C[C@H](C)C(=O)OC)cs1)C(C)C)C1CC1 (some centres not stated) , give the reported growth.
31.5% (inactive)

For the compound shown here, "COc1ccc(N(CC(=O)NCCC[Te]c2ccccc2)C(=O)CCSC2=C(C)C(=O)c3ccccc3C2=O)cc1" , give the reported growth.
-8.2% (active)

For the compound shown here, CC12CCC3C(CCC4Cc5[nH]c6ccccc6c5CC43C)C1CCC2O (configuration not stated) , give the reported growth.
42.8% (inactive)

For the compound shown here, "Cc1cc(NC(=O)NCc2ccc(N3C(N)=NC(N)=NC3(C)C)cc2)ccc1S(=O)(=O)F" , give the reported growth.
33.6% (inactive)

---

Reported growth values for a set of compounds
System: M14 melanoma
Protocol Text: NCI-60 one-dose screen, 48 h (100 = growth as untreated, 0 = no growth, -100 = all killed)
Recorded Conditions: 10 µM unless noted
About 83,000 compounds went through this panel and 20% of them were active in at least one assay; those are over-represented in the sample as a whole.
Give just the numeric value; % need not be written.

- Compound: "O=C(Nc1ccc(Br)cc1)c1cc(Br)cc(Br)c1O"
  Quantity Unit: "%"
  growth: 1.78
- Compound: "CCCCCCCCOC(=O)CCN1CC1"
  Quantity Unit: "%"
  growth: 107
- Compound: "COc1ccc(/C=C\\c2cc(OC)c(OC)c(OC)c2)c(NS(=O)(=O)c2ccc(F)cc2)c1O"
  Quantity Unit: "%"
  growth: 6.43
- Compound: "O=C1Nc2ccccc2C2c3cccn3-c3ccccc3CN12 (stereo not given)"
  Quantity Unit: "%"
  growth: 20.2
- Compound: "CCOC(=O)CCN(C)C1=Nc2ccc(Cl)cc2C(c2ccccc2)=[N+]([O-])C1"
  Quantity Unit: "%"
  growth: 113
- Compound: "Nc1ccc2c(c1)oc1ccccc12"
  Quantity Unit: "%"
  growth: 101
- Compound: "CCCCN1CCCC[C@@H]1C(=O)N[C@H](C(=O)N(C)[C@H](CCc1nc(C(=O)N[C@@H](Cc2ccccc2)C[C@H](C)C(=O)OC)cs1)C(C)C)[C@@H](C)CC"
  Quantity Unit: "%"
  growth: 48.6
- Compound: "O=NNc1ccccn1"
  Quantity Unit: "%"
  growth: 87.3
- Compound: "O=C(N/N=C/c1ccc(N(CCCl)CCCl)cc1)c1cccc2ccccc12"
  Quantity Unit: "%"
  growth: 51.7
- Compound: "Clc1cccc(NCOOC2(OOCNc3cccc(Cl)c3)CCCCC2)c1"
  Quantity Unit: "%"
  growth: 60.4

For the compound shown here, C[C@]12CC[C@H]3[C@@H](C[C@@H]4SC(Nc5ccccc5)=N[C@@]45CC(O)CC[C@]35C)[C@@H]1CCC2O (stereo not given in full) , give the reported growth.
53.4

For the compound shown here, "C/C(Cc1ccc(Cl)cc1)=C(\c1ccc(OCCN2CCOCC2)cc1)c1ccc(OC(=O)Cc2ccccc2)cc1" , give the reported growth.
89.4

---

Test system: UO-31 renal
Protocol Text: NCI-60 one-dose screen, 48 h
Recorded Conditions: 10 µM unless noted
This is part of a sample that, as a whole, favours compounds with a hit. Of some 83,000 tested, about 20% had one in any assay. Calls of active or inactive are those of the source. How the source made its calls: active means growth percent below 10; inactive means the rest.
Reply using exactly one outcome from active, inactive

Use the examples below as a reference point.
- Compound: "CC1(C)N=C(N)N=C(N)N1c1ccc(CCCCc2ccc(Cl)c(S(=O)(=O)F)c2)c(Cl)c1"
  Qualitative Label: "inactive"
- Compound: "C[C@@]12CC[C@@H](O)C[C@@H]1CC[C@H]1[C@H]2CC[C@@]2(C)[C@H](c3ccc(=O)oc3)CC[C@@]12O"
  Qualitative Label: "active"
- Compound: "[Cl][Hg][c]1cc[c]([Hg][Cl])o1"
  Qualitative Label: "active"
- Compound: "CN1C(=O)C(=Cc2cn(Cc3ccccc3)c3ccccc23)C(=O)N(C)C1=O"
  Qualitative Label: "inactive"
- Compound: "COC(=O)[C@@H](C)C[C@H](Cc1ccccc1)NC(=O)c1csc([C@@H](C[C@H](C(C)C)N(C)C(=O)C2(NC(=O)[C@H]3CCCCN3C)CC2)OC(C)=O)n1"
  Qualitative Label: "inactive"

What did the test return for "C=C(C)[C@@]12OC3(/C=C/C=C/CCCCC)O[C@@H]1[C@@H]1[C@@H]4O[C@]4(CO)[C@@H](O)[C@]4(O)C(=O)C(C)=C[C@H]4[C@@]1(O3)[C@H](C)[C@H]2OC(=O)c1ccccc1" ?
inactive

What did the test return for "CC1(C)N=C(N)N=C(N)N1c1ccc(CCC(=O)Nc2ccc(S(=O)(=O)F)cc2)c(Cl)c1" ?
inactive

What did the test return for COc1ccc([As]=[As]c2ccc(OC)c(NCS(=O)(=O)O)c2)cc1NCS(=O)(=O)O (configuration not stated) ?
inactive

What did the test return for CC1(C)CN1P(=O)(N1CC1(C)C)N1CC1(C)C (configuration not stated) ?
inactive

What did the test return for "CCOC(=O)[C@@H](C)C[C@H](Cc1ccccc1)NC(=O)c1csc([C@@H](C[C@H](C(C)C)N(C)C(=O)[C@@H](NC(=O)[C@H]2CCCCN2C)C(C)(C)CC)OC(C)=O)n1" ?
active

---

Tested on: HT29 colon
Protocol Text: NCI-60 one-dose screen, 48 h (100 = growth as untreated, 0 = no growth, -100 = all killed)
Recorded Conditions: 10 µM unless noted
Protocol: Growth inhibition of the HT29 human tumor cell line is measured as a screen for anti-cancer activity. Cells are grown in 96 well plates and exposed to the test compound for 48 hours. Compounds are tested at a single concentration, which is 10^-5 M for most compounds. The reported endpoint is percent growth (GI% or GIPRCNT), where numbers from 0 - 100% represent growth inhibition, and numbers from -100% - 0 represent cell death. For example, a value of 40 represents 60% growth inhibition. […]
The panel holds about 83,000 compounds, 20% with a hit somewhere; the sample as a whole holds those more often.
Lab note: compare growth against 6%. Equal or greater, write Fulfilled. Smaller, write Not fulfilled.

- Compound: "C[C@]12CCc3sc(-c4ccccc4O)nc3C1=CC[C@@H]1[C@@H]2CC[C@]2(C)C(=O)CC[C@@H]12"
  Qualitative Label: "Fulfilled"
- Compound: "Cc1cc(C)cc(Nc2nc3c(s2)CC[C@@]2(C)C3=CC[C@@H]3[C@@H]2CC[C@]2(C)C(=O)CC[C@@H]32)c1"
  Qualitative Label: "Fulfilled"
- Compound: "CCCc1cc(O)c2c3c(c(=O)oc2c1)CN(C)CC3"
  Qualitative Label: "Fulfilled"
- Compound: "COc1ccc(/C=C\\c2cc(OC)c(OC)c(OC)c2)cc1NC(=O)/C=C/c1ccc(OC)c(OC)c1"
  Qualitative Label: "Fulfilled"
- Compound: "Brc1ccc2c(c1)c(-c1nc(-c3c[nH]c4ncccc34)cs1)cn2CCN1CCCCC1"
  Qualitative Label: "Fulfilled"
- Compound: "COc1ccc(C2=CC(c3ccc(OC)c(OC)c3)c3c(c4ccccc4oc3=O)O2)cc1OC (stereo not drawn)"
  Qualitative Label: "Not fulfilled"

State whether the measured growth reaches 6%, counting equality as reaching it, for "C[C@]12CC[C@H]3[C@@H](CC[C@]4(O)C[C@@H](O[C@@H]5O[C@H](CO)[C@@H](O[C@@H]6OC[C@@H](O)[C@H](O)[C@H]6O)[C@H](O)[C@H]5O)CC[C@]34C=O)[C@@]1(O)CC[C@@H]2C1=CC(=O)OC1"
Not fulfilled

State whether the measured growth reaches 6%, counting equality as reaching it, for "COc1ccc(NC([Se])=NC23CC4CC(CC(C4)C2)C3)cc1"
Not fulfilled
